Where do the numbers come from? From patent US6949542B2.

Target: rat mGlu2 receptor (Rattus norvegicus, UniProt P31421)
Construct: expressed in transfected cells; vector pcD1mGR2
Sequence (P31421 19-872): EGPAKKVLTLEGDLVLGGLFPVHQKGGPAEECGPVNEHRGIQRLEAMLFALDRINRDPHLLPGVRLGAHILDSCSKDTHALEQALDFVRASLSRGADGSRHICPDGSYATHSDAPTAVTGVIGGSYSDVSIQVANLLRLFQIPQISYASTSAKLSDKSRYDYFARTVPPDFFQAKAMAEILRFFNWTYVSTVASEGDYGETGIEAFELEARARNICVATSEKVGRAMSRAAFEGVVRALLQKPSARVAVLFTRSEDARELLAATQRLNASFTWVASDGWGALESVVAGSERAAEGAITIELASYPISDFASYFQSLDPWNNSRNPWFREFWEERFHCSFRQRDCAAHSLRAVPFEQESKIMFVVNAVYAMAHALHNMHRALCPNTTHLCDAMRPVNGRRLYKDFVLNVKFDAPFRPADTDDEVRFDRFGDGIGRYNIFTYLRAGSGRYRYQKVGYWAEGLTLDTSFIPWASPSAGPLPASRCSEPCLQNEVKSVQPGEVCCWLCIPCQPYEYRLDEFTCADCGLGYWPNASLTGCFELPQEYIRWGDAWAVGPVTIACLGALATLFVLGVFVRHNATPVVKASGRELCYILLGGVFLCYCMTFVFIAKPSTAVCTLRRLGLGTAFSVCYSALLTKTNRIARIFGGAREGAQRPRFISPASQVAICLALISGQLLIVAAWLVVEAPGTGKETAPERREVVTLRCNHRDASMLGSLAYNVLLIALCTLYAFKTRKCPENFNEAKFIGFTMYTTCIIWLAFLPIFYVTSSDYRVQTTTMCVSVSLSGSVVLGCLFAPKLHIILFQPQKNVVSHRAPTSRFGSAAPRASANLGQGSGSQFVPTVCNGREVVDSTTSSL
Test: [3H]-LY354740 binding on mGlu2 transfected CHO cell membranes
Details: inhibition of 10 nM [3H]-LY354740 binding, mGlu2 transfected CHO cell membranes, room temperature, 1 hour; read-out: Ki mGlu2
Reported pKi values are given for each entry in this list.
Please express pKi as -log10 of the molar concentration.

Solved cases (3 shown):
[[record]]
molecule = "Cc1cncc(-c2cccc(C3=Nc4cc(C)c(C(F)(F)F)cc4NC(=O)C3)c2)n1 [Example 129]"
assay_result = 8.51

[[record]]
molecule = "O=C1CC(c2cccc(-c3ccncc3)c2)=Nc2cc(Cl)c(Cl)cc2N1 [Example 2]"
assay_result = 8.47

[[record]]
molecule = "COCCNc1nc(C)cc(-c2cccc(C3=Nc4cc(N(C)C)c(C(F)(F)F)cc4NC(=O)C3)c2)n1 [Example 326]"
assay_result = 8.10


Quick note, pKi for Cc1cc2c(cc1Cl)NC(=O)CC(c1cccc(-c3ccncc3)c1)=N2 [Example 67] landed at 8.81
